Value source: paper PMC11530689

Listing of entries alongside the reported Growth %.
Tested on: HL-60 (TB)
Test: NCI 60 cell line screen
Type: cell-based
Conditions: Leukemia, single concentration 10^−5 M
Quote the value and follow it with the unit of measurement.

Check out these entries, answers already filled in.
COc1cc(OC)cc(-c2cc(-c3c[nH]c4ccccc34)nc(-c3c[nH]c4ccccc34)c2C#N)c1	101.74%
N#Cc1c(-c2ccc(Cl)cc2)cc(-c2c[nH]c3ccccc23)nc1-c1c[nH]c2ccccc12	102.90%
CN(C)c1ccc(-c2cc(-c3c[nH]c4ccccc34)nc(-c3c[nH]c4ccccc34)c2C#N)cc1	85.35%
N#Cc1c(-c2ccccc2)cc(-c2c[nH]c3ccccc23)nc1-c1c[nH]c2ccccc12	103.72%

Request the reported Growth % associated with N#Cc1c(-c2ccc(O)cc2)cc(-c2c[nH]c3ccccc23)nc1-c1c[nH]c2ccccc12
107.76%

Could you share which Growth % value was measured for N#Cc1c(-c2ccc([N+](=O)[O-])cc2)cc(-c2c[nH]c3ccccc23)nc1-c1c[nH]c2ccccc12 ?
97.00%

I have this compound here, N#Cc1c(-c2ccc(Br)cc2)cc(-c2c[nH]c3ccccc23)nc1-c1c[nH]c2ccccc12 , and I need its recorded Growth %.
102.74%

What measured Growth % goes with N#Cc1c(-c2ccc(F)cc2)cc(-c2c[nH]c3ccccc23)nc1-c1c[nH]c2ccccc12 ?
98.89%

For COc1ccc(-c2cc(-c3c[nH]c4ccccc34)nc(-c3c[nH]c4ccccc34)c2C#N)cc1 , what is its reported Growth %?
106.85%

Could you tell me which Growth % is on file for COc1cc(-c2cc(-c3c[nH]c4ccccc34)nc(-c3c[nH]c4ccccc34)c2C#N)cc(OC)c1OC ?
101.32%

---

Test system: NCI-H522
Experiment: NCI 60 cell line screen
Type: cell-based
Details: NCI-H522, Non-Small Cell Lung Cancer; single concentration 10^−5 M
measurement kind: Growth % (%)
API: value field is a number in %; no unit string.

Worked examples follow.
COc1cc(-c2cc(-c3c[nH]c4ccccc34)nc(-c3c[nH]c4ccccc34)c2C#N)cc(OC)c1OC	93.33
CN(C)c1ccc(-c2cc(-c3c[nH]c4ccccc34)nc(-c3c[nH]c4ccccc34)c2C#N)cc1	93.15
N#Cc1c(-c2ccc(Cl)cc2)cc(-c2c[nH]c3ccccc23)nc1-c1c[nH]c2ccccc12	96.57

Suppose we examine the compound N#Cc1c(-c2ccccc2)cc(-c2c[nH]c3ccccc23)nc1-c1c[nH]c2ccccc12 ; what Growth % value has been reported?
97.10

---

Tested on: SK-OV-3
Experiment: NCI 60 cell line screen
Assay type: cell-based
Details: SK-OV-3, Ovarian Cancer; single concentration 10^−5 M
measurement kind: Growth % (%)
Supply the numeric figure in %, leaving out any unit text.

N#Cc1c(-c2ccccc2)cc(-c2c[nH]c3ccccc23)nc1-c1c[nH]c2ccccc12	93.31
COc1ccc(-c2cc(-c3c[nH]c4ccccc34)nc(-c3c[nH]c4ccccc34)c2C#N)cc1	94.59
COc1cc(-c2cc(-c3c[nH]c4ccccc34)nc(-c3c[nH]c4ccccc34)c2C#N)cc(OC)c1OC	97.19

What value of Growth % has been recorded for this entry: CN(C)c1ccc(-c2cc(-c3c[nH]c4ccccc34)nc(-c3c[nH]c4ccccc34)c2C#N)cc1
94.88

I am curious: what Growth % value has been reported for N#Cc1c(-c2ccc(Cl)cc2)cc(-c2c[nH]c3ccccc23)nc1-c1c[nH]c2ccccc12 ?
91.24

Quick check: Growth % of N#Cc1c(-c2ccc(Br)cc2)cc(-c2c[nH]c3ccccc23)nc1-c1c[nH]c2ccccc12 ?
100.81

Fill in: Growth % of N#Cc1c(-c2ccc([N+](=O)[O-])cc2)cc(-c2c[nH]c3ccccc23)nc1-c1c[nH]c2ccccc12 is ___
90.72

Data request, read-out Growth %, for N#Cc1c(-c2ccc(F)cc2)cc(-c2c[nH]c3ccccc23)nc1-c1c[nH]c2ccccc12
96.90

Which measured Growth % value corresponds to N#Cc1c(-c2ccc(O)cc2)cc(-c2c[nH]c3ccccc23)nc1-c1c[nH]c2ccccc12 ?
96.54

Return reported Growth %; argument: COc1cc(OC)cc(-c2cc(-c3c[nH]c4ccccc34)nc(-c3c[nH]c4ccccc34)c2C#N)c1
99.89
